test.target: PKR(R510Q) (Homo sapiens, UniProt P30613, R510Q)
Sequence (P30613 whole entry R510Q): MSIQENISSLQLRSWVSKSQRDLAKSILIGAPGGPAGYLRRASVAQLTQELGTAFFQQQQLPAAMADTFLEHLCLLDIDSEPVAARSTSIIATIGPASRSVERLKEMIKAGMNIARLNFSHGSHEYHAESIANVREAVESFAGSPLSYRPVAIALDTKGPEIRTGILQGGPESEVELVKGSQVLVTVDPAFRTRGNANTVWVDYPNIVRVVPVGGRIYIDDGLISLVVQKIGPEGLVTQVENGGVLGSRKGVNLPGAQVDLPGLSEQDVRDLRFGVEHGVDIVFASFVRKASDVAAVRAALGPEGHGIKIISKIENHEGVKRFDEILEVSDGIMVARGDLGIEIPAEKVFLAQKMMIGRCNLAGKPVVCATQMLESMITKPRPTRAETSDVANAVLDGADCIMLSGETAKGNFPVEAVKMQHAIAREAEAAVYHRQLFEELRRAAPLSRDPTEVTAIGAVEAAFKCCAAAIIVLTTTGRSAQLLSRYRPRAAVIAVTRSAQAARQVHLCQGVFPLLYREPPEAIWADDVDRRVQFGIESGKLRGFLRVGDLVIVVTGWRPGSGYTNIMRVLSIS
assay.text: Luminescence Biochemical Assay (Kinase Glo Plus), PKR R510Q mutant
recorded.conditions: without FBP, read-out: AC50 LUM KGP woFBP MAX % FOLD mean
For each of the molecules below, state its Emax.

What does the record list as Emax for COc1ccc(CNC(=O)N2CC3=C(C2)CN(S(=O)(=O)c2cccc(F)c2)C3)cc1 [Example 20-7] ?
250 to 500%

How about O=C(NCc1cnco1)N1CC2=C(C1)CN(S(=O)(=O)c1ccc(F)cc1)C2 [Example 5-1] ?
75 to 250%

How about O=C(NCc1cccnc1)N1CC2=C(C1)CN(S(=O)(=O)c1ccc3ncsc3c1)C2 [Example 20-56] ?
250 to 500%

How about O=C([C@H](O)c1ccccc1)N1CC2=C(C1)CN(S(=O)(=O)c1ccc(F)cc1F)C2 [Example 18-18] ?
250 to 500%

How about COc1ccccc1CNC(=O)N1CC2=C(C1)CN(S(=O)(=O)c1ccc(OC(F)F)cc1)C2 [Example 21-12] ?
250 to 500%

----------
test.target: PKR(R510Q) (Homo sapiens, UniProt P30613, R510Q)
assay.text: Luminescence Biochemical Assay (Kinase Glo Plus), PKR R510Q mutant
recorded.conditions: without FBP, 1.54 μM compound, read-out: AC50 LUM KGP woFBP % Fold@1.54 μM mean
measurement.kind: activation at 1.54 µM

API: value(readout= activation at 1.54 µM, system= PKR(R510Q) (Homo sapiens, UniProt P30613, R510Q), query= O=C([C@H](O)c1ccccc1)N1CC2=C(C1)CN(S(=O)(=O)c1ccccn1)C2 )
75 to 250%

How about O=C([C@@H](O)c1ccc2c(c1)CNCC2)N1CC2=C(C1)CN(S(=O)(=O)c1ccc(OC(F)F)cc1)C2 (single isomer, unassigned) ?
250 to 50000%

How about COc1cccc(CNC(=O)N2CC3=C(C2)CN(S(=O)(=O)c2ccc4ncsc4c2)C3)c1 ?
75 to 250%

How about COc1ccc(S(=O)(=O)N2CC3=C(CN(C(=O)[C@H](O)c4ccccc4)C3)C2)cc1F ?
250 to 50000%

How about CC(C)Oc1cccc(CNC(=O)N2CC3=C(C2)CN(S(=O)(=O)c2ccc4ncsc4c2)C3)c1 ?
75 to 250%

How about O=C(NCc1ccc(F)cc1)N1CC2=C(C1)CN(S(=O)(=O)c1ccc3occc3c1)C2 ?
75 to 250%

How about Cc1ccc(S(=O)(=O)N2CC3=C(CN(C(=O)[C@H](O)c4ccccc4)C3)C2)cc1F ?
75 to 250%

How about O=C(NCc1ccccc1F)N1CC2=C(C1)CN(S(=O)(=O)c1cccnc1)C2 ?
250 to 50000%

How about COc1ccccc1CNC(=O)N1CC2=C(C1)CN(S(=O)(=O)c1ccc(F)cc1)C2 ?
75 to 250%

How about Cc1nn(C)c(Cl)c1S(=O)(=O)N1CC2=C(CN(C(=O)[C@H](C)c3ccccc3)C2)C1 ?
75 to 250%

How about COc1ccccc1CNC(=O)N1CC2=C(C1)CN(S(=O)(=O)c1ccc(OC(F)F)cc1)C2 ?
250 to 50000%

----------
For each of the compounds below, state its AC50.
test.target: PKR(G332S) (Homo sapiens, UniProt P30613, G332S)
Sequence (P30613 whole entry G332S): as the sequence (P30613 whole entry R510Q) above, with G332S, Q510R counted along it
assay.text: Luminescence Biochemical Assay (Kinase Glo Plus), PKR G332S mutant
recorded.conditions: with FBP, read-out: AC50 LUM KGP FBP AC50 μM gmean (column A)

What does the record list as AC50 for O=C([C@H](O)c1ccccc1)N1CC2=C(C1)CN(S(=O)(=O)c1ccc(OC(F)F)cc1)C2 [Example 18-13] ?
≤ 0.1 µM

How about O=C(Cc1cccnc1)N1CC2=C(C1)CN(S(=O)(=O)c1ccccn1)C2 [Example 16-1] ?
1 to 40 µM

How about Cc1nc(CC(=O)N2CC3=C(C2)CN(S(=O)(=O)c2ccc(OC(F)F)cc2)C3)cs1 [Example 18-20] ?
1 to 40 µM

How about CC(C)Oc1ccc(S(=O)(=O)N2CC3=C(CN(C(=O)[C@H](O)c4ccccc4)C3)C2)cc1 [Example 18-12] ?
0.1 to 1 µM

How about O=C(NCc1ccccc1F)N1CC2=C(C1)CN(S(=O)(=O)c1ccc(OC(F)F)cc1)C2 [Example 21-15] ?
≤ 0.1 µM

How about O=C(C1CCOCC1)N1CC2=C(C1)CN(S(=O)(=O)c1ccc3c(c1)NCCO3)C2 [Example 7-1] ?
0.1 to 1 µM

How about Cc1ccc(CC(=O)N2CC3=C(C2)CN(S(=O)(=O)c2ccccn2)C3)cn1 [Example 18-61] ?
1 to 40 µM

How about O=C([C@H](O)c1ccc2c(c1)NCCO2)N1CC2=C(C1)CN(S(=O)(=O)c1ccc(OC(F)F)cc1)C2 (single isomer, unassigned) [Example 9-4] ?
0.1 to 1 µM

----------
test.target: PKR(wt) (Homo sapiens, UniProt P30613)
Sequence (P30613 whole entry): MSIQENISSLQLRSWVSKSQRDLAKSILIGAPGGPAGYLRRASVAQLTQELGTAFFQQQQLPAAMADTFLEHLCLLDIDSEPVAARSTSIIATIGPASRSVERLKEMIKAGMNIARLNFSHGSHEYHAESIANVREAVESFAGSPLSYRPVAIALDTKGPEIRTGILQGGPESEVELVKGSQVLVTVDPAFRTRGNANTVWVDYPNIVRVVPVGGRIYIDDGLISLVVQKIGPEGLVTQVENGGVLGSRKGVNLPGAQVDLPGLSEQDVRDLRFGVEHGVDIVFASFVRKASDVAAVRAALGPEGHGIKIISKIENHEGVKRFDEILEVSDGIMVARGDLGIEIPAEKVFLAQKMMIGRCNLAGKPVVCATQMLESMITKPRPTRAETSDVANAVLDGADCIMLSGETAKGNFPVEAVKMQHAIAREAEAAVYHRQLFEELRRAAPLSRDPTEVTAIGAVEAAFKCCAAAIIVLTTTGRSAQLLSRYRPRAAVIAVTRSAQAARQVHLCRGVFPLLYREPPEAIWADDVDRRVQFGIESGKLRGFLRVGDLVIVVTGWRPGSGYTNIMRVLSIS
assay.text: Luminescence Biochemical Assay (Kinase Glo Plus), wild type PKR
recorded.conditions: without FBP, read-out: AC50 LUM KGP woFBP AC50 μM gmean
measurement.kind: AC50

What does the record list as AC50 for Cc1cc(CNC(=O)N2CC3=C(C2)CN(S(=O)(=O)c2ccc(OC(F)F)cc2)C3)no1 [Example 21-5] ?
0.1 to 1 µM

How about O=C(NCc1cccnc1)N1CC2=C(C1)CN(S(=O)(=O)c1ccc3ncsc3c1)C2 [Example 20-56] ?
1 to 40 µM

How about Cc1cc(C(=O)N2CC3=C(C2)CN(S(=O)(=O)c2ccc4occc4c2)C3)nn1C [Example 18-84] ?
1 to 40 µM

How about O=C(NCc1cnccn1)N1CC2=C(C1)CN(S(=O)(=O)c1ccc3ncsc3c1)C2 [Example 21-30] ?
0.1 to 1 µM

How about O=C(Cc1ccc(F)cc1F)N1CC2=C(C1)CN(S(=O)(=O)c1cccnc1)C2 [Example 18-66] ?
1 to 40 µM

How about O=C(Cn1cnnn1)N1CC2=C(C1)CN(S(=O)(=O)c1cccnc1)C2 [Example 18-70] ?
1 to 40 µM

How about O=C([C@@H](O)c1ccc2c(c1)NCCO2)N1CC2=C(C1)CN(S(=O)(=O)c1ccc(OC(F)F)cc1)C2 (single isomer, unassigned) [Example 9-5] ?
≤ 0.1 µM

How about CC[C@H](O)C(=O)N1CC2=C(C1)CN(S(=O)(=O)c1ccc3c(c1)N(C)CCO3)C2 [Example 18-75] ?
1 to 40 µM

How about Cc1nc(CC(=O)N2CC3=C(C2)CN(S(=O)(=O)c2ccccn2)C3)cs1 [Example 18-68] ?
1 to 40 µM

How about Cc1ccc(CC(=O)N2CC3=C(C2)CN(S(=O)(=O)c2ccc(OC(F)F)cc2)C3)cn1 [Example 18-30] ?
0.1 to 1 µM

----------
test.target: PKR(wt) (Homo sapiens)
assay.text: Luminescence Biochemical Assay (Kinase Glo Plus), wild type PKR
recorded.conditions: without FBP, read-out: AC50 LUM KGP woFBP MAX % FOLD mean
For each of the compounds below, state its Emax.

What does the record list as Emax for Cc1cccc(CNC(=O)N2CC3=C(C2)CN(S(=O)(=O)c2ccc4ncsc4c2)C3)n1 ?
250 to 500%

How about Cc1nc(CC(=O)N2CC3=C(C2)CN(S(=O)(=O)c2ccccn2)C3)cs1 ?
250 to 500%

How about Cc1nn(C)c(Cl)c1S(=O)(=O)N1CC2=C(CN(C(=O)[C@H](O)c3ccccc3)C2)C1 ?
75 to 250%

How about COc1ccc(S(=O)(=O)N2CC3=C(CN(C(=O)[C@H](O)c4ccccc4)C3)C2)cc1F ?
75 to 250%

How about COC[C@@H](C)NC(=O)N1CC2=C(C1)CN(S(=O)(=O)c1ccc3occc3c1)C2 ?
75 to 250%

How about O=C([C@H](O)c1ccc(F)cc1)N1CC2=C(C1)CN(S(=O)(=O)c1ccc(OC(F)F)cc1)C2 ?
250 to 500%

How about O=C([C@@H](O)c1ccc2c(c1)CNCC2)N1CC2=C(C1)CN(S(=O)(=O)c1ccc(OC(F)F)cc1)C2 (single isomer, unassigned) ?
75 to 250%

How about Cc1ccc(F)c(S(=O)(=O)N2CC3=C(CN(C(=O)[C@H](O)c4ccccc4)C3)C2)c1 ?
75 to 250%

How about O=C(N1CC2=C(C1)CN(S(=O)(=O)c1ccc(OC(F)F)cc1)C2)C(F)(F)c1ccccc1 ?
250 to 500%

----------
test.target: PKR(wt) (Homo sapiens, UniProt P30613)
assay.text: Luminescence Biochemical Assay (Kinase Glo Plus), wild type PKR
recorded.conditions: without FBP, read-out: AC50 LUM KGP woFBP MAX % FOLD mean
measurement.kind: Emax

What does the record list as Emax for O=C([C@H](O)c1ccc(F)cc1)N1CC2=C(C1)CN(S(=O)(=O)c1ccc(C(F)(F)F)nc1)C2 ?
75 to 250%

How about CC[C@H](O)C(=O)N1CC2=C(C1)CN(S(=O)(=O)c1ccc3c(c1)N(C)CCO3)C2 ?
75 to 250%

How about O=C([C@H](O)c1ccccc1)N1CC2=C(C1)CN(S(=O)(=O)c1ccc(F)cc1F)C2 ?
75 to 250%

How about O=C(c1ccccn1)N1CC2=C(C1)CN(S(=O)(=O)c1ccc3occc3c1)C2 ?
75 to 250%

How about O=C(C(O)c1cccc(F)c1)N1CC2=C(C1)CN(S(=O)(=O)c1ccc(OC(F)F)cc1)C2 (stereo not drawn) ?
250 to 500%

How about O=C(OCC1CCOC1)N1CC2=C(C1)CN(S(=O)(=O)c1ccc(OC(F)F)cc1)C2 (stereo not drawn) ?
75 to 250%

These entries and their values trace back to patent US12122778B2.
